# Measurement Target: human B1R receptor (Homo sapiens, UniProt P46663)
# Construct: host or cells: CHO K1 cells (Chinese hamster ovary), stably transfected
# Sequence (P46663 whole entry): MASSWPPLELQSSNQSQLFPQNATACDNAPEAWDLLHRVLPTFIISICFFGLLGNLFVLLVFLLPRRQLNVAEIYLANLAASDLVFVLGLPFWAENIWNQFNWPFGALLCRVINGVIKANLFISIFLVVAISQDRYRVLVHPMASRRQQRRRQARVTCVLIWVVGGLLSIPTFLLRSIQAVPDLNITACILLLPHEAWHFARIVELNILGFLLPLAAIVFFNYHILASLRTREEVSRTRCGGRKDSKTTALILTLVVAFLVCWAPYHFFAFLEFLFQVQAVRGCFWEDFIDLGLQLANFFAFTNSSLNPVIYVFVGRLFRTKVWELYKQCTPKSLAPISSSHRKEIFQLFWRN
# Test Name: Functional study on the bradykinin receptor 1 (B1R), FLIPR Ca2+ assay, hB1R cells
# Format: cell-based
# Condition Parameters: CHO-K1, test substance 10 μM, agonist Lys-Des-Arg9-bradykinin 0.5 nM, % inhibition compared with the maximum achievable inhibition, read-out: B1R Antagonism, human [10 μM] % Inhibition
Measured Property: inhibition at 10 µM (%)
Report the value in % with no unit label.

Compound	inhibition at 10 µM [%]
Cc1cc(C)c(S(=O)(=O)N2CCCCC2COCC(=O)N2CCN(CC3CCN(C)CC3)CC2)c(C)c1 (stereo not shown)	102
COc1ccc(-c2cc(NC(=O)COCC3CCCCN3S(=O)(=O)c3c(C)cc(OC)cc3C)n[nH]2)cc1 (stereo not shown)	21.1
CN1CCC(N2CCN(C(=O)COCC3CCCCN3S(=O)(=O)c3ccc(Cl)cc3Cl)CC2)CC1 (stereo not shown)	103

Noted for O=C(COCC1CCCCN1S(=O)(=O)c1c(Cl)cc(Cl)cc1Cl)NCC(c1cccnc1)N1CCOCC1 (stereo not shown) : its inhibition at 10 µM reads 50.2

Data provenance is patent US8435978B2.
